test system: SN12C renal; experiment: NCI-60 one-dose screen, 48 h; settings: 10 µM unless noted
The panel holds about 83,000 compounds, 20% with a hit somewhere; the sample as a whole holds those more often. Activity calls are given as the source filed them. Rule for the calls: active = growth percent below 10; inactive = the rest.
Hi! Could you answer with just one of these? active, inactive

{"compound": "N#C/C(=C\\c1ccc(Cl)cc1Cl)C(=O)Nc1ncc(Cc2ccc(Cl)c(Cl)c2)s1", "answer label": "inactive"}

Q: Hi team, can someone confirm the assay call for CCNc1nc(-c2ccc(F)cc2)c(C#N)c(=O)n1C ?
A: inactive

Q: Test call for this compound, please: COc1cccc(OC)c1Oc1c(-c2nc3ccccc3s2)c(C)nn1-c1ccccc1
A: inactive

Q: Test call for this compound, please: COc1cc2oc(-c3cccc(NC(=O)c4ccc5c(c4)OCO5)c3)cc(=O)c2c(OC)c1OC
A: inactive

Q: Record lookup: outcome of this test for Clc1nccc2c(-c3csc(-c4c[nH]c5ccccc45)n3)c[nH]c12 ?
A: inactive

Q: Test call for this compound, please: COc1ccc(NC(=O)c2sc3nc4c(cc3c2N)CCCC4)cc1
A: inactive

Q: Give the logged outcome of this assay for the following compound: O=C(CCCCNC(=O)c1cc(=O)c(O)co1)Nc1ccccc1
A: inactive

Q: For O=C(NCc1ccccc1O)c1cccc2ccccc12 , what call appears in the results of this test?
A: inactive

Q: Check the results log: what was the call for COc1ccccc1NC(=O)c1ccc(/C=C/C(=O)c2nccn2C)cc1 ?
A: active

Q: Would you mind telling me which call this test gave O=C(/C=C/c1ccc(Br)cc1)c1ccc(-n2cc(CN3CCN(c4cc5c(cc4F)c(=O)c(C(=O)O)cn5C4CC4)CC3)nn2)cc1 ?
A: inactive

Q: GET /call?item= CCC/C(=N\NC(N)=O)C(OC)OC returns the recorded outcome of this test.
A: inactive

Q: Could you kindly confirm the outcome this assay logged for O=C(OC[C@@H]1CO1)c1cccc2c(=O)c3ccccc3[nH]c12 ?
A: active

Q: Dear colleague, could you share the recorded outcome for Cc1c2cc[nH]c(=O)c2c(C)c2c1[nH]c1ccc(OC(=O)c3ccccc3)cc12 when you have a moment?
A: inactive

Q: Field: outcome | Entry: CC(C)c1ccc(-n2c(=S)[nH]c3sc4c(c3c2=O)CCC(=O)C4)cc1
A: inactive

Q: Look up the recorded call for Cc1ccc(/C=C(\C#N)C(=O)Nc2ncc(Cc3cc(Cl)ccc3Cl)s2)o1 in this test.
A: inactive

Q: # outcome recorded in this test, key = CCOC(=O)C(=Cc1cccc(C#N)c1)C(=O)OCC
A: inactive

Q: Lab log entry: COc1ccc(-c2cc(-c3ccc(OC)cc3)nc(NCCCNc3ccnc4cc(Cl)ccc34)n2)cc1 — outcome as called in the assay?
A: active

Q: Hi, sorry to bother you, what did the test record for O=P(O)(O)OCC1OC(n2cnc3c(NCc4ccccc4)ncnc32)C(O)C1O (stereo not given) ?
A: inactive

Q: Outcome logged for C/C(C=O)=C\c1ccc2c(c1)OCO2 in this assay:
A: inactive

Q: So what was the verdict on COc1ccc2nc3ccccc3c(NCc3ccc(F)cc3)c2c1 in this test?
A: inactive

Q: Check the results log: what was the call for COc1ccc(C2=Nc3c/c(=C\c4c(O)[nH]c5cc(Cl)ccc45)ccc3=N2)cc1 ?
A: inactive

Q: Record lookup: outcome of this test for COc1ccc(C(c2cc(OC)c(OC)c(OC)c2)N2CCCC2)cc1 (stereo not given) ?
A: inactive

Q: Kindly provide the recorded test outcome for the following compound: COCC[C@H]1CCC/C=C/[C@@H]2C[C@H](O)C[C@H]2[C@H](O)/C=C/C(=O)O1
A: active

Q: Outcome logged for CCOC(=O)Cn1c(=O)c2c3ccccc3n(C)c2n2nnc(-c3ccccc3)c12 in this assay:
A: inactive

Q: Please indicate how the test categorized CCCCCCCC/C=C\CCCCCCCCOc1ccc(CC(=O)NCC[N+](C)(C)C)cc1 .
A: inactive

Values were extracted from PubChem BioAssay (NCI).
